tested on: A2780 cells; assay: Viability assay in A2780 (Cell Titer Glo); type: cell-based, human; settings: Homo sapiens; A2780 cells; read-out: A2780 Cell prolif. EC50
pEC50: −log10 of the molar value.
Exercise: state measured pEC50 for each of the molecules provided.

Exam item: Requested read-out pEC50, target or system A2780 cells, entry "Nc1ncc(-c2ccc3nc(NC(=O)C4CNC4)cn3n2)cc1C(F)(F)F"
Marked response: > 5.00

Exam item: Continue with "CCN(CC)CC#Cc1c(NC(C)=O)nc2ccc(-c3cnc(N)c(C(F)(F)F)c3)cn12"
Marked response: > 5.00

Exam item: Continue with "CC(C)(C)OC(=O)N1CCN(c2ccc(C(=O)Nc3cn4cc(-c5cnc(N)c(C(F)(F)F)c5)ccc4n3)cn2)CC1"
Marked response: > 6.00

Exam item: Continue with "CC(=O)Nc1cn2cc(-c3cnc(N)c(OC4CN(C(=O)OC(C)(C)C)C4)n3)ccc2n1"
Marked response: > 6.00

Exam item: Continue with "CN(C)CCCC(=O)Nc1cn2nc(-c3cnc(N)c(C(F)(F)F)c3)ccc2n1"
Marked response: > 6.00

Exam item: Continue with "CC(=O)Nc1cn2nc(-c3cnc(N)c(C(=O)NCCNS(C)(=O)=O)c3)ccc2n1"
Marked response: > 4.60

Exam item: Continue with "CC(=O)Nc1cn2cc(-c3cnc(N)c(C#N)c3)ccc2n1"
Marked response: > 5.00

Exam item: Continue with "Nc1ncc(-c2ccc3nc(NC(=O)CN4CCCCC4)cn3c2)cc1C(F)(F)F"
Marked response: > 5.00

---

tested on: pSer473-Akt in A2780 cells; assay: pSer473 Akt assay to monitor PI3K pathway in A2780 cells (MSD); type: cell-based; settings: Homo sapiens; A2780 cells; read-out: A2780 pAKT 473 EC50
pEC50: −log10 of the molar value.
Exercise: state measured pEC50 for each of the compounds provided.

Exam item: Fill blank: measured pEC50 of the compound "CC(=O)Nc1cn2cc(-c3cnc(N)c(-c4ccccc4)n3)ccc2n1" is ____.
Marked response: > 6.00

Exam item: Continue with "CC(=O)Nc1cn2nc(-c3cnc(N)c(Cl)c3)ccc2n1"
Marked response: > 6.00

Exam item: Continue with "CC(=O)Nc1cn2nc(-c3cnc(N)c(-c4ccccc4F)c3)ccc2n1"
Marked response: > 6.00

Exam item: Continue with "COc1ccc(CC(=O)Nc2cn3cc(-c4cnc(N)c(C(F)(F)F)c4)ccc3n2)cc1"
Marked response: > 6.00

Exam item: Continue with "Nc1ncc(-c2ccc3nc(NC(=O)CO[C@H]4CCNC4)cn3n2)cc1C(F)(F)F"
Marked response: > 6.00

Exam item: Continue with "CCOc1nc(-c2ccc3nc(NC(C)=O)cn3c2)cnc1N"
Marked response: > 6.00

Exam item: Continue with "CC(=O)Nc1cn2cc(-c3cnc(N)c(Oc4cccc(F)c4)n3)ccc2n1"
Marked response: > 6.00

Exam item: Continue with "Nc1ncc(-c2ccc3nc(NC(=O)CCCN4CCCCC4)cn3c2)cc1C(F)(F)F"
Marked response: > 6.00

Exam item: Continue with "COc1cc(-c2ccc3nc(NC(C)=O)cn3c2)c(C)nc1N"
Marked response: > 4.60

Exam item: Continue with "CNCC(=O)Nc1cn2cc(-c3cnc(N)c(C(F)(F)F)c3)ccc2n1"
Marked response: > 6.00

Exam item: Continue with "CC(=O)Nc1cn2cc(-c3cnc(N)c(O[C@H](C)C(F)(F)F)n3)ccc2n1"
Marked response: > 6.00

Exam item: Continue with "CC(=O)Nc1nc2ccc(-c3cnc(N)c(C(F)(F)F)c3)cn2c1-c1ccc(C(N)=O)cc1"
Marked response: > 4.60

Exam item: Continue with "CCOCC(=O)Nc1cn2nc(-c3cnc(N)c(C(F)(F)F)c3)ccc2n1"
Marked response: > 6.00

Exam item: Continue with "CC(=O)Nc1cn2cc(-c3cnc(N)c(O[C@@H](C)C(F)(F)F)n3)ccc2n1"
Marked response: > 6.00

Exam item: Continue with "CC(=O)Nc1cn2cc(-c3cnc(N)c(Oc4cccnc4)n3)ccc2n1"
Marked response: > 6.00

Exam item: Continue with "COCC(=O)Nc1cn2cc(-c3cnc(N)c(OCC(F)(F)F)n3)ccc2n1"
Marked response: > 6.00

Exam item: Continue with "CC(=O)Nc1cn2cc(-c3cnc(N)c(-c4ccc(N5CCOCC5)cc4)c3)ccc2n1"
Marked response: > 5.00

Exam item: Continue with "CC(=O)Nc1cn2cc(-c3cnc(N)c(-c4ccccc4N4CCOCC4)c3)ccc2n1"
Marked response: > 6.00

Exam item: Continue with "CC(=O)Nc1cn2cc(-c3cnc(N)c(C(F)(F)F)c3)ccc2n1"
Marked response: > 6.00

---

tested on: pSer473-Akt in A2780 cells; experiment: pSer473 Akt assay to monitor PI3K pathway in A2780 cells (MSD); type: cell-based; settings: Homo sapiens, A2780, 1 h, read-out: A2780 pAKT473 EC50
Measured Property: EC50

Exam item: Fill blank: measured EC50 of the compound "COc1cc(-c2ccc3nc(NC(C)=O)sc3c2)cnc1N" is ____.
Marked response: < 1000 nM

---

test system: A2780 cells; test: Viability assay in A2780 (Cell Titer Glo); type: cell-based, human; conditions: Homo sapiens; A2780 cells; read-out: A2780 Cell prolif. EC50
pEC50: −log10 of the molar value.
Exercise: state measured pEC50 for each of the molecules provided.

Exam item: Fill blank: measured pEC50 of the molecule Nc1ncc(-c2ccc3nc(NC(=O)[C@H]4CCCCN4)cn3c2)cc1C(F)(F)F [Example 216] is ____.
Marked response: > 5.00

Exam item: Continue with Nc1ncc(-c2ccc3nc(NC(=O)CN4CCCCC4)cn3n2)cc1C(F)(F)F [Example 133]
Marked response: > 5.00

Exam item: Continue with CC(=O)Nc1cn2cc(-c3cnc(N)c(-c4ccccc4OC(F)(F)F)c3)ccc2n1 [Example 121]
Marked response: > 5.00

Exam item: Continue with NCC(=O)Nc1cn2nc(-c3cnc(N)c(C(F)(F)F)c3)ccc2n1 [Example 77]
Marked response: > 6.00

Exam item: Continue with CN(C)C1CCN(C(=O)Nc2cn3cc(-c4cnc(N)c(C(F)(F)F)c4)ccc3n2)C1 (centres unmarked) [Example 248]
Marked response: > 5.00

Exam item: Continue with CC(=O)Nc1cn2nc(-c3cnc(N)cn3)ccc2n1 [Example 170]
Marked response: > 4.60

Exam item: Continue with Nc1ncc(-c2ccc3nc(NC(=O)N4CCC[C@H]4CO)cn3c2)cc1C(F)(F)F [Example 232]
Marked response: > 5.00

Exam item: Continue with CCC(=O)Nc1cn2cc(-c3cnc(N)c(C(F)(F)F)c3)ccc2n1 [Example 236]
Marked response: > 5.00

Exam item: Continue with CCN(CC)Cc1cc(-c2ccc3nc(NC(C)=O)cn3n2)cnc1N [Example 240]
Marked response: > 5.00

Exam item: Continue with COc1c(-c2cnc(N)c(C(F)(F)F)c2)ccc2nc(NC(=O)C(F)(F)F)cn12 [Example 37]
Marked response: > 4.60

Exam item: Continue with Nc1ncc(-c2ccc3nc(NC(=O)N4CCC(C(=O)O)C4)cn3c2)cc1C(F)(F)F (centres unmarked) [Example 151]
Marked response: > 4.60

Exam item: Continue with COc1cc(-c2ccc3nc(NC(C)=O)cn3n2)c(C)nc1N [Example 43]
Marked response: > 4.60

Exam item: Continue with Nc1ncc(-c2ccc3nc(NC(=O)[C@@H]4CCN4)cn3c2)cc1C(F)(F)F [Example 228]
Marked response: > 5.00

Exam item: Continue with CC(C)(C)OC(=O)N1CCC1C(=O)Nc1cn2cc(-c3cnc(N)c(OCC(F)(F)F)n3)ccc2n1 (centres unmarked) [Example 174]
Marked response: > 4.60

Exam item: Continue with CC(C)C(=O)Nc1cn2cc(-c3cnc(N)c(OCC(F)(F)F)n3)ccc2n1 [Example 230]
Marked response: > 5.00

Exam item: Continue with Nc1ncc(-c2ccc3nc(NC(=O)C(F)(F)F)cn3c2O)cc1C(F)(F)F [Example 41]
Marked response: > 4.60

Exam item: Continue with CC(=O)Nc1cn2cc(-c3cnc(N)c(-c4ccccc4)n3)ccc2n1 [Example 113]
Marked response: > 5.00

---

system: A2780 cells; experiment: Viability assay in A2780 (Cell Titer Glo); type: cell-based, human; settings: Homo sapiens; A2780 cells; read-out: A2780 Cell prolif. EC50
pEC50: −log10 of the molar value.
Exercise: state measured pEC50 for each of the molecules provided.

Exam item: Fill blank: measured pEC50 of the molecule "CCN(CC)CCOc1cc(-c2ccc3nc(NC(C)=O)cn3c2)cnc1N" is ____.
Marked response: > 4.60

Exam item: Continue with "NC(=O)N1CC[C@H]1C(=O)Nc1cn2cc(-c3cnc(N)c(C(F)(F)F)c3)ccc2n1"
Marked response: > 4.60

Exam item: Continue with "COc1cc(-c2ccc3nc(NC(C)=O)cn3c2C)cnc1N"
Marked response: > 4.60

Exam item: Continue with "C/C=C\c1c(NC(C)=O)nc2ccc(-c3cnc(N)c(C(F)(F)F)c3)cn12"
Marked response: > 4.60

Exam item: Continue with "CC(=O)Nc1cn2cc(-c3cnc(N)c(C(=O)N4CCN(C(=O)OC(C)(C)C)CC4)c3)ccc2n1"
Marked response: > 4.60

Exam item: Continue with "CC(=O)Nc1cn2cc(-c3cnc(N)c(Br)n3)ccc2n1"
Marked response: > 4.60

Exam item: Continue with "CC(=O)Nc1ccc(-c2c(NC(C)=O)nc3ccc(-c4cnc(N)c(C(F)(F)F)c4)cn23)cc1"
Marked response: > 4.60

Exam item: Continue with "Nc1ncc(-c2ccc3nc(NC(=O)c4ccc(F)cc4)cn3c2)cc1C(F)(F)F"
Marked response: > 6.00
